Sourced from patent US20240059759A1

test.system: CoV-2 (SARS-CoV-2)

# binder, xmid (log10)
measured = [
    ("vhh_tstrep_sars2_pjl1_L_24 (VHH) VHH: QVQLQESGGGLVQAGGSLRLSCAASGRTFSEYAMGWFRQAPGKEREFVATISWSGGSTAYTDSVKGRFTISRDNAKNTVYLQMNSLKPDDTAVYYCAAAGLGTVVSEWDYDYDYWGQGTQVTVSS", 0.582),
    ("vhh_tstrep_sars2_pjl1_L_32 (VHH) VHH: QVQLQESGGGLVQAGGSLRLSCAASGRTFSEYAMGWFRQAPGKEREFVATISWSGGSTYYTDSVKGRFTISRDNAKNTVYLQMNSLKPDDTAVYYCAAAGLGTVVSAWDYDYDYWGQGTQVTVSS", -0.271),
    ("vhh_tstrep_sars2_pjl1_L_35 (VHH) VHH: QVQLQESGGGLVQAGGSLRLSCAASGRTFSEYAMGWFRQAPGKEREFVATISWSGGSTYYTDSVKGRFTISRDNAKNTVYLQMNSLKPDDTAVYYCAGAGLGTVVSEWDYDYDYWGQGTQVTVSS", -0.501),
    ("vhh_tstrep_sars2_pjl1_L_22 (VHH) VHH: QVQLQESGGGLVQAGGSLRLSCAASGRTFSEYAMGWFRQAPGKEREFVATISASGGSTYYTDSVKGRFTISRDNAKNTVYLQMNSLKPDDTAVYYCAAAGLGTVVSEWDYDYDYWGQGTQVTVSS", 0.688),
]
